Target: B1R receptor of the rat (rB1R) (Rattus norvegicus, UniProt P97583)
Construct: expressed in transfected cells; host or cells: CHO K1 cells
Sequence (P97583 whole entry): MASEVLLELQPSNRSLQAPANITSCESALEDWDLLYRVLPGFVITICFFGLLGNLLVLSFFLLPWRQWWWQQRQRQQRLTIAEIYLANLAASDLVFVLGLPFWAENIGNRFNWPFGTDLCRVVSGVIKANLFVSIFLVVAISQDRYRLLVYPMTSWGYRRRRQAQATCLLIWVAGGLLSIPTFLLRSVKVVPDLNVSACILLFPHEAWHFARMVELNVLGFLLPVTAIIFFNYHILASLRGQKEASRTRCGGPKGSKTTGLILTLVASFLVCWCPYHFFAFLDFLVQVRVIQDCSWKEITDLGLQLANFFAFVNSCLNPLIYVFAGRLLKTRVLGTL
Experiment: Functional investigation on the bradykinin receptor 1 (B1R), FLIPR Ca2+ assay, rB1R cells
Assay type: cell-based
Description: The agonistic or antagonistic action of substances can be quantified on the bradykinin receptor 1 (B1R) of the human and rat species with ectopically expressing cell lines (CHO K1 cells) and with the aid of a Ca^2+-sensitive dyestuff (Fluo-4) in a fluorescent imaging plate reader (FLIPR). […] The agonistic or antagonistic action of substances can be determined on the bradykinin receptor 1 (B1R) of the human and rat species with the following assay. […]
inhibition at 10 µM reference

compound: CN(Cc1nc2cccc(C(=O)N3CCC4(CC3)CCN(c3ccncc3)CC4)c2[nH]1)C(=O)c1ccc(Cl)s1
inhibition at 10 µM (%): 105
//
compound: COc1cc(C)c(S(=O)(=O)N(C)C(C)c2nc3cccc(C(=O)N4CCC5(CC4)CCN(C(=O)c4cc(C(C)(C)C)nn4C)CC5)c3[nH]2)c(C)c1 (stereo not drawn)
inhibition at 10 µM (%): 92
//
compound: COc1cc(C)c(S(=O)(=O)N(C)Cc2nc3ccc(C(=O)N4CCC5(CC4)CCN(c4ccncc4)CC5)cc3[nH]2)c(C)c1
inhibition at 10 µM (%): 103
//
compound: COc1cc(C)c(S(=O)(=O)N(C)Cc2nc3ccc(F)c(C(=O)N4CCC5(CC4)CCN(c4ccncc4)CC5)c3[nH]2)c(C)c1
inhibition at 10 µM (%): 93
//
compound: COc1cc(C)c(S(=O)(=O)N(C)C(C)c2nc3cccc(C(=O)N4CCC5(CC4)CCN(C(=O)c4cc(C)nn4C(C)(C)C)CC5)c3[nH]2)c(C)c1 (stereo not drawn)
inhibition at 10 µM (%): 89
//
compound: COc1cc(C)c(S(=O)(=O)N(C)C(C)c2nc3cccc(C(=O)N4CCC5(CCN(Cc6c(C)noc6C)CC5)CC4)c3[nH]2)c(C)c1 (stereo not drawn)
inhibition at 10 µM (%): 90
